# System: MS2 coat protein
# EXPERIMENTAL PROTOCOL: apparent KD of MS2 coat protein; designed switch direction (-1 OFF switch, 1 ON switch): -1; higher = weaker reporter binding
# PROTOCOL CONDITIONS: input ligand: FMN 200 uM
TEST READOUT: apparent KD of MS2 coat protein (nM)
Dear colleague, please return just the value in nM, with no unit written.

RESIDUE SEQUENCE	TEST READOUT	MEASURE UNIT	RECORDED MEASUREMENT
CUGUACUGAGGAUAUACAUGAGGAUCACCCAUGUGUUCCUGCUAGGAAACUAGCAAGGGUAGAAGGCAGUACAG [Mat - Exclusion 3 - Eli Mod - D46] (Eterna round: R97, puzzle: Exclusion 3)	apparent KD of MS2 coat protein	nM	100

Suppose we examine the sequence CGCUGGUGAGGAUAUGGGUGUUUUUACAUGAGGAUCACCCAUGUGGAGUAGCAUGUGGGUCCAGAAGGCGCGAGUG [-24.2, -22.5 kcal, 21% A] (Eterna round: R97, puzzle: Exclusion 5) ; what apparent KD of MS2 coat protein value has been reported?
398

Suppose we examine the sequence CCCGCAGGUUUUUUGCUCGACAUGAGGAUCACCCAUGUUGCGUGGGUUGUGUGUGUGCGGUGUAUAUAUAUGGUCCU [-24.5, -48 kcal, A 14%] (Eterna round: R97, puzzle: Sensor, turn-off variant 1) ; what apparent KD of MS2 coat protein value has been reported?
305

Suppose we examine the sequence GCGGACUAGAUCGUGAGAUCUGAGACAUGAGGAUCACCCAUGUAGGAUAUCGAUUCGAAACGAAUCGAGAAGGGCAUAGUCCGC [JL denovo 8] (Eterna round: R96, puzzle: Exclusion NG 3) ; what apparent KD of MS2 coat protein value has been reported?
23.1

Suppose we examine the sequence AACUAACAUGUAGGAUAUGCGUGGCGAAGCUAUGCAGAAGGACAUGAGGAUCACCCAUGUUUUAGCGUCUGCGUACAGAUGCAU [JL ENG1 1.41] (Eterna round: R96, puzzle: Exclusion NG 1) ; what apparent KD of MS2 coat protein value has been reported?
146
